- system under test: T1, human alpha2-Antiplasmin (human, UniProt P08697 40-491)
- T1 sequence: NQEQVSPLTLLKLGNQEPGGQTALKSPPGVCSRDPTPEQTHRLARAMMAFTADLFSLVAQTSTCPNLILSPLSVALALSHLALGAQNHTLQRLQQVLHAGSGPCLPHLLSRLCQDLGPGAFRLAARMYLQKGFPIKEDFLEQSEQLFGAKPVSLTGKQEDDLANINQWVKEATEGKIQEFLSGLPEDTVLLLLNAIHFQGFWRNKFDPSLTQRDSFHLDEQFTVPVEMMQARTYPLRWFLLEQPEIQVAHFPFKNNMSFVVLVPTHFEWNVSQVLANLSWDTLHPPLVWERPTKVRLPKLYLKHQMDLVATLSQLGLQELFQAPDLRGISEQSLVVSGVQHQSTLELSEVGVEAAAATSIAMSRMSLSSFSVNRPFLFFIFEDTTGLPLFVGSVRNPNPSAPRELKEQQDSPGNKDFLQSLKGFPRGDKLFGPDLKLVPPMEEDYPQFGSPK
- measurement protocol: cell-based or functional assay
measure name: function blocking activity [IC50 M], 3rd exp.
Could you kindly put the unit after your number?

TPP-14314 hIgG1 (antibody, V domains shown, Human IgG1 lambda) VH: EVQLLESGGGLVQPGGSLRLSCAASGFTFDDYAMSWVRQAPGKGLEWVSAIGTGGGTYYADSVKGRFTISRDNSKNTLYLQMNSLRAEDTAVYYCAREYYDSSGYYHLVYWGQGTLVTVSS VL: QSVLTQPPSASGTPGQRVTISCTGSSSNIGATYDVHWYQQLPGTAPKLLIYSNNQRPSGVPDRFSGSKSGTSASLAISGLRSEDEADYYCAAWDVSLSGWVFGGGTKLTVL | 69 nM
TPP-14308 hIgG1 (antibody, V domains shown, starting point of the germlining) VH: EVQLLESGGGLVQPGGSLRLSCAASGFTFDDYAMSWVRQAPGKGLEWVSAIGTGGGTYYADSVKGRFTISRDNSKNTLYLQMNSLRAEDTAVYYCAREGYDSSGYYHLDYWGQGTLVTVSS VL: QSVLTQPPSASGTPGQRVTISCTGSSSNIGATYDVHWYQQLPGTAPKLLIYSNNQRPSGVPDRFSGSKSGTSASLAISGLRSEDEADYYCAAWDWSLSGWVFGGGTKLTVLG | 24 nM
TPP-14298 hIgG1 (antibody, V domains shown) VH: EVQLLESGGGLVQPGGSLRLSCAASGFTFDDYAMSWVRQAPGKGLEWVSAIGTGGGTYYADSVKGRFTISRDNSKNTLYLQMNSLRAEDTAVYYCASEYYDSSGYYHLDYWGQGTLVTVSS VL: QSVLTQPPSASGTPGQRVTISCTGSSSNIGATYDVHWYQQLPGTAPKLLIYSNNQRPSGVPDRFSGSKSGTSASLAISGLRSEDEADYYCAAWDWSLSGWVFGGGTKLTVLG | 40 nM

For the next question, use this binder.
Incoming: Give the reported value of function blocking activity [IC50 M], 3rd exp. for this record: TPP-14305 hIgG1 (antibody, V domains shown) VH: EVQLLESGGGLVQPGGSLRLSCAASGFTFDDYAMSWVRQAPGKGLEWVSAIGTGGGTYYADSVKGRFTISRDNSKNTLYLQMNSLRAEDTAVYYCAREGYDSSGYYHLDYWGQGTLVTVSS VL: QSVLTQPPSASGTPGQRVTISCTGSSSNIGATYDVHWYQQLPGTAPKLLIYSNNQRPSGVPDRFSGSKSGTSASLAISGLRSEDEADYYCWAWDDSLSGWVFGGGTKLTVLG
Outgoing: 66 nM
